All values here come from ChEMBL document CHEMBL1136986.

Molecular target: GABA A receptor alpha-5/beta-3/gamma-2 (Rattus norvegicus, UniProt P18508+P19969+P63079)
Sequence (P19969 whole entry, one chain of several): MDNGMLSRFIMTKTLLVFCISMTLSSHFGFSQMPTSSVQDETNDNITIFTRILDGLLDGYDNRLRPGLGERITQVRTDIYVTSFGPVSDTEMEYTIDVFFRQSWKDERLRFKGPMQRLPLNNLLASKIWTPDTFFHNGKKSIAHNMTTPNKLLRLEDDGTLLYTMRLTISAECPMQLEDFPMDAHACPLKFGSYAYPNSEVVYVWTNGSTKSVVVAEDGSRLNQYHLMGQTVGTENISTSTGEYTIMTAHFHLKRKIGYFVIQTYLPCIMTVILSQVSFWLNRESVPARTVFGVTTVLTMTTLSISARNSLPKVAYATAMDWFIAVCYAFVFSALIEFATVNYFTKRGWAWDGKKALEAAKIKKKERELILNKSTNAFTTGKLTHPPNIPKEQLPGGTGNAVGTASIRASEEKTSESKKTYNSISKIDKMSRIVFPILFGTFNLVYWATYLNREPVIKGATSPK
Sequence (P63079 whole entry, one chain of several): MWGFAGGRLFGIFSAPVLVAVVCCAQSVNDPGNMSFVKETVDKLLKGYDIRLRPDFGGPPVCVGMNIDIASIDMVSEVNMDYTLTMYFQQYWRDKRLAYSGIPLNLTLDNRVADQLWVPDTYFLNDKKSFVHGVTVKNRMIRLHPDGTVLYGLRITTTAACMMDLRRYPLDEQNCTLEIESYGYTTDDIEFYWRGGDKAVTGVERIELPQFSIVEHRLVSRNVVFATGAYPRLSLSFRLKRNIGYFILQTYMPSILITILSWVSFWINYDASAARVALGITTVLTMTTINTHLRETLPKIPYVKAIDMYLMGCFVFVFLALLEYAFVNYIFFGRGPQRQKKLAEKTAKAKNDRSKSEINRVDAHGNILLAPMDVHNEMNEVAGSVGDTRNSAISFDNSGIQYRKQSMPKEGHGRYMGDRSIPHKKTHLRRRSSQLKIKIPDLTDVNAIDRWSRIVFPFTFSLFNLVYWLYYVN
Experiment: Displacement of [3H]flumazenil from rat GABA-A alpha-5-beta-3-gamma-2 receptor expressed in HEK293 cells
pKi: −log10 of the molar value.
Answer no (0) if pKi is under 6, and yes (1) if it is 6 or more.

molecule: O=C(NCc1ccc([N+](=O)[O-])cc1)C(=O)c1c[nH]c2ccc([N+](=O)[O-])cc12
class-name: no (0)
--
molecule: O=C(NCc1ccc(F)cc1)C(=O)c1c[nH]c2ccccc12
class-name: yes (1)
--
molecule: COc1ccc2c(c1)CCC2NC(=O)C(=O)c1c[nH]c2ccc([N+](=O)[O-])cc12 (racemic)
class-name: yes (1)

====

Target: Gamma-aminobutyric acid receptor subunit alpha-2 (Rattus norvegicus) (UniProt P23576)
Sequence (P23576 whole entry): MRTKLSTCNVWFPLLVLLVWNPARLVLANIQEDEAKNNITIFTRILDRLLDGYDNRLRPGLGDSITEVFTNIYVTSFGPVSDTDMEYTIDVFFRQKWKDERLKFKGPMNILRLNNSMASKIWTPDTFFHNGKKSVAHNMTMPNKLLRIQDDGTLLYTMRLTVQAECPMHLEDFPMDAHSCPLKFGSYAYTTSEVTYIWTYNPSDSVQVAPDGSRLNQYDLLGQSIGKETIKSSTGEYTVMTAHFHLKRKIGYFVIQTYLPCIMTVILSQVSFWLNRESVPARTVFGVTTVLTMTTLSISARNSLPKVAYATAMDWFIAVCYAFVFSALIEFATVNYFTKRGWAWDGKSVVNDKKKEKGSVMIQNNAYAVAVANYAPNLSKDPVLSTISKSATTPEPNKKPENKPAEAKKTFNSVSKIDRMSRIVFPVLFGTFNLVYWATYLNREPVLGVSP
Assay: Agonist activity at rat GABA-A alpha-2-beta-2-gamma-2 receptor expressed in HEK293 cells assessed as increase in 36Cl- influx
Type: functional, cell-based
measured-endpoint: Activity (%)

molecular-string: O=C(NCc1ccc(F)cc1)C(=O)c1c[nH]c2ccccc12
observed-result: 85

molecular-string: O=C(N[C@@H]1CCc2ccccc21)C(=O)c1c[nH]c2ccc([N+](=O)[O-])cc12
observed-result: 48

molecular-string: C[C@@H](NC(=O)C(=O)c1c[nH]c2ccc([N+](=O)[O-])cc12)c1ccccc1
observed-result: 79

molecular-string: CN1C(=O)CN=C(c2ccccc2)c2cc(Cl)ccc21
observed-result: 81

====

The following compounds are listed with their measured Ki values.
Target: GABA-A receptor; alpha-1/beta-2/gamma-2 (Rattus norvegicus, UniProt P18508+P62813+P63138)
Sequence (P18508 whole entry): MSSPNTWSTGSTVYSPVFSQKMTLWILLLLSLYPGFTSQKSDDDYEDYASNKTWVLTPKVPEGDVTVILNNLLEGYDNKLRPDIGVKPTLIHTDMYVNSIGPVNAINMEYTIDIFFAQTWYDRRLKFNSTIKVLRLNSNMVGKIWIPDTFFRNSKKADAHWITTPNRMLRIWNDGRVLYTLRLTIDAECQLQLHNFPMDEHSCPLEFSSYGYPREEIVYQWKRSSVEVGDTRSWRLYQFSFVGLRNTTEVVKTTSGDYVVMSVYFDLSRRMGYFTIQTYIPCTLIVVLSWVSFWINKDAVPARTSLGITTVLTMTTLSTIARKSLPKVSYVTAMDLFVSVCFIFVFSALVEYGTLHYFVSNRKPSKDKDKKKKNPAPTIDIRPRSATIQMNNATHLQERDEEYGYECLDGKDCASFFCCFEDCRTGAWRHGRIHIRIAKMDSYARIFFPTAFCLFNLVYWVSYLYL
Sequence (P62813 whole entry): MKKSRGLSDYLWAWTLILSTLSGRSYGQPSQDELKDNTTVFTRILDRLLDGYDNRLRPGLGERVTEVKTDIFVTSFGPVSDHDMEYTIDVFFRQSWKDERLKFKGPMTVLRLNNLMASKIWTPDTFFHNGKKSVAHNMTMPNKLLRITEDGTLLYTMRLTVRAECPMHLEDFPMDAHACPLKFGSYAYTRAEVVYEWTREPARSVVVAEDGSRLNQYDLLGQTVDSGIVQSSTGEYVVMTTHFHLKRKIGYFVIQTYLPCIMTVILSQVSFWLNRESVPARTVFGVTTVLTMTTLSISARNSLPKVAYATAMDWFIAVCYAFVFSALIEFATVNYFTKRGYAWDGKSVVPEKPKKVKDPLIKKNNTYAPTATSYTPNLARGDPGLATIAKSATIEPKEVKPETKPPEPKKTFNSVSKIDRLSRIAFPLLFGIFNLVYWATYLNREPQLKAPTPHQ
Sequence (P63138 whole entry): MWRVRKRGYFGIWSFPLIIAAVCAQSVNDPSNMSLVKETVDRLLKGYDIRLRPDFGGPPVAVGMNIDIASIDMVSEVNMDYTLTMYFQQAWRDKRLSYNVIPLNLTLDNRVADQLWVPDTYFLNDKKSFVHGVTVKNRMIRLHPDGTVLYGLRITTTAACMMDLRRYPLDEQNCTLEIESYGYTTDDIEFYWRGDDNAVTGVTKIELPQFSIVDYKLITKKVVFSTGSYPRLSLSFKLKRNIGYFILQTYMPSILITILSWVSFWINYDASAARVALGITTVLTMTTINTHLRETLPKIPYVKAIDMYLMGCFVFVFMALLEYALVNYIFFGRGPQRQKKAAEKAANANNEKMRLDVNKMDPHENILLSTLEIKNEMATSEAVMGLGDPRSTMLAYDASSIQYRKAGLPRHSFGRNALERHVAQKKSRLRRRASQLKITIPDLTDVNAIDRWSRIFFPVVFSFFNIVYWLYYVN
Test: Displacement of [3H]flumazenil from rat GABA-A alpha-1-beta-2-gamma-2 receptor expressed in HEK293 cells
Assay type: cell-based

compound: COc1ccc2c(c1)CCC2NC(=O)C(=O)c1c[nH]c2ccccc12 (racemic)
Ki [nM]: 246
--
compound: O=C(NC1CCc2cc([N+](=O)[O-])ccc21)C(=O)c1c[nH]c2ccc([N+](=O)[O-])cc12 (racemic)
Ki [nM]: 200
--
compound: O=C(NCc1ccc(F)cc1)C(=O)c1c[nH]c2ccccc12
Ki [nM]: 245
--
compound: COc1ccc(CNC(=O)C(=O)c2c[nH]c3ccccc23)cc1
Ki [nM]: 195
--
compound: O=C(NCc1ccc([N+](=O)[O-])cc1)C(=O)c1c[nH]c2ccc([N+](=O)[O-])cc12
Ki [nM]: 293
--
compound: O=C(NC1CCc2cc(F)ccc21)C(=O)c1c[nH]c2ccccc12 (racemic)
Ki [nM]: 2050
--
compound: O=C(NC1CCc2cc(F)ccc21)C(=O)c1c[nH]c2ccc([N+](=O)[O-])cc12 (racemic)
Ki [nM]: 195
--
compound: COc1ccc2c(c1)CCC2NC(=O)C(=O)c1c[nH]c2ccc([N+](=O)[O-])cc12 (racemic)
Ki [nM]: 28

====

Assay: Displacement of [3H]flumazenil from Benzodiazepine receptor in bovine cerebral cortex membrane
Assay type: cell membranes, Bos taurus
Overview of recorded log10 of Ki for various compounds
measured-endpoint: log10 of Ki (log10 of the value in nM)

compound: O=C(NCc1ccccc1)C(=O)c1c[nH]c2ccccc12
measured-endpoint: log10 of Ki
observed-result: 2.08
--
compound: O=C(N[C@@H]1CCc2ccccc21)C(=O)c1c[nH]c2ccccc12
measured-endpoint: log10 of Ki
observed-result: 2.83
--
compound: O=C(NCc1ccc([N+](=O)[O-])cc1)C(=O)c1c[nH]c2ccc([N+](=O)[O-])cc12
measured-endpoint: log10 of Ki
observed-result: 2.79
--
compound: COc1ccc(CNC(=O)C(=O)c2c[nH]c3ccc([N+](=O)[O-])cc23)cc1
measured-endpoint: log10 of Ki
observed-result: 1.72
--
compound: COc1ccc(CNC(=O)C(=O)c2c[nH]c3ccccc23)cc1
measured-endpoint: log10 of Ki
observed-result: 2.21
--
compound: COc1ccc2c(c1)CCC2NC(=O)C(=O)c1c[nH]c2ccc([N+](=O)[O-])cc12 (racemic)
measured-endpoint: log10 of Ki
observed-result: 1.11
--
compound: C[C@@H](NC(=O)C(=O)c1c[nH]c2ccc([N+](=O)[O-])cc12)c1ccccc1
measured-endpoint: log10 of Ki
observed-result: 1.23
--
compound: O=C(NCc1ccccc1)C(=O)c1c[nH]c2ccc([N+](=O)[O-])cc12
measured-endpoint: log10 of Ki
observed-result: 2.07
